# key: entry, value: TGI
- System: HCT-116 colon
- Method Summary: NCI tumour cell line growth inhibition, 48 h
Value Kind: TGI

> print(dat)
                                    compound  measured.result
 1         CC(=O)OCCOCNC(=S)N/N=C(\C)c1cccs1         > 100 µM
 2         CN(C)CCNC(=O)c1c2ccccc2cc2ccccc12         > 100 µM
 3   CCOc1cc2c(=O)oc3c(OC)ccc4ccc(c1OC)c2c43          20.4 µM
 4                   O=Cc1c(Br)[nH]c2ccccc12         > 100 µM
 5  COc1cc(C2c3cc(OC)c(OC)c(O)c3C(=O)C3CCC(=O)N32)cc(OC)c1OC (configuration not stated)         > 100 µM
 6  NC(=O)c1sc(-n2cnc3ccc(C(F)(F)F)cc32)cc1OCc1ccccc1Br          > 25 µM
 7  Cc1c2cccc-2c(OCCOC(=O)n2ccnc2)cc2c1[nH]c1ccccc12          10.3 µM
 8            O=C1CCSC(=S)N1c1ccc(Br)c(Cl)c1         > 100 µM
 9  Cc1cn([C@H]2C[C@H](O)[C@@H](CO)O2)c(=O)nc1N         > 100 µM
10  O=C(NO)c1ccc(Cn2c(=O)n(-c3ccccc3)c(=O)c3ccccc32)cc1         0.898 µM
11  C[C@@]12C[C@@H](c3ccccc3O1)N1Cc3ccccc3CSC1=N2         > 100 µM
12  COc1cc(C(O)C(=O)c2cnc3cc([N+](=O)[O-])ccc3n2)ccc1O (configuration not stated)         > 100 µM
13     CCC(=O)N1C(=O)C(CC)(CC)C(=O)N1C(=O)CC         > 100 µM
14  CN(C)CC1CCCCCC(Br)C1=O (configuration not stated)           5.1 µM
15  CCCCOc1ccc2c(c1)CC[C@@H]1[C@@H]2CC[C@]2(C)C(=O)N(CCCC)C(=O)C[C@@H]12         > 100 µM
16  COc1ccc(C2=NNC(c3cc4cc(Br)ccc4nc3Cl)C2)cc1 (configuration not stated)          > 25 µM
17  COc1ccc2c(c1)[nH]c(=O)c1c3cc(OC)c(OC)cc3cn21          1.19 µM
18  COc1ccc(N=Nc2c(-c3ccccc3)nn(C(=O)CC(=O)Nc3ccccc3Cl)c2-c2ccccc2)cc1         > 100 µM
19  OCCn1cc(-c2cnc3nnn(Cc4ccc5ncccc5c4)c3n2)cn1         > 100 µM
20  COc1ccc(/C=N\NC(=O)c2ccc3nc(-c4ccc(Cl)cc4)[nH]c3c2)cc1          5.12 µM
21  CCCC(C)c1c(Cl)nc(Cl)nc1Cl (configuration not stated)          3.66 µM
22  O=C(CCN1CCCC1)Nc1ccc2c(NCCc3ccccc3)c3ccccc3nc2c1          1.38 µM
23  COc1ccc(-c2nc(-c3ccccn3)c(-c3ccccn3)n2CC(C)C)cc1OC1CCCC1         > 165 µM
24  O=C1O[C@H]2C3C4CCC(C4[C@@H]2I)[C@H]13 (some centres not stated)         > 100 µM
25  CC(=O)Nc1ccc(-c2csc(Nc3cccc(-c4csc(-c5ccccc5)n4)c3)n2)cc1          > 50 µM
26  N#Cc1ccc(C2Oc3ccc(Cl)cc3C=C2[N+](=O)[O-])cc1 (configuration not stated)         0.987 µM
27  CC[C@H](C)[C@H](NC(=O)NC(C)(C)C)C(=O)N(C)[C@H](C[C@@H](OC(C)=O)c1nc(C(=O)N[C@@H](Cc2ccccc2)C[C@H](C)C(=O)OC)cs1)C(C)C          > 25 µM
28  CCN(CC)c1ccc2cc(C(N)=O)c(=Nc3ccc(F)cc3)oc2c1         > 100 µM
29  CN(C)C(=S)/N=c1\ss/c(=N\C(=S)N(C)C)n1Cc1ccco1         > 100 µM
30  O=C(c1ccco1)c1nc2cc(C(F)(F)F)ccc2[n+]([O-])c1C(F)(F)F         > 100 µM
31  COC12C=CC(CC1)C(C)(C)C2OS(C)(=O)=O (configuration not stated)         > 100 µM
32  O=S(c1ccc(Cl)cc1)c1ccccc1C1=NCCN1 (configuration not stated)         > 100 µM
